This section presents binders with their documented cAMP Rel EC50, nM (1% HSA) values.
target: hGLP-1R (Homo sapiens, UniProt P43220); assay: cell-based or functional assay
Sequence (P43220 24-463): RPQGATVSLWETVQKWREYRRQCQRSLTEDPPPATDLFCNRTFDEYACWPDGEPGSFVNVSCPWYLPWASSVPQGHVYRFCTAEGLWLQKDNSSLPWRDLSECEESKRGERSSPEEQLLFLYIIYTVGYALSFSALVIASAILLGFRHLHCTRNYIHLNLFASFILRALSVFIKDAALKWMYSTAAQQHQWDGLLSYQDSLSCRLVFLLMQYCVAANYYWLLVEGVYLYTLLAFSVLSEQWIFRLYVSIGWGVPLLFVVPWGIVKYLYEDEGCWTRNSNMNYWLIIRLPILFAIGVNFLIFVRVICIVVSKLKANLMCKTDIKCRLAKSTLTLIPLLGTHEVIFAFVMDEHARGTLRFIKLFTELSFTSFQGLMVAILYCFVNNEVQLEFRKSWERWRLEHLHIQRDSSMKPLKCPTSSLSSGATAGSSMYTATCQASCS
readout_kind: cAMP Rel EC50, nM (1% HSA) (nM)

binder="YXQGTFTSDXSQXLDXKAQXAFIEYLIAGGPSSGEPPPSGSE (non-natural residues; lipidated Lys; C-terminal amide; synthetic construct; SITE 2: note = 2-Aminoisobutyric Acid; SITE 10: note = 3-(4-Pyridyl)-L-alanine; SITE 13: note = alpha-methyl-leucine; SITE 16: note = L-ornithine; SITE 17: note = Lysine is chemically modified through conjugation of the epsilon-amino group of the Lysine side chain with (gamma-Gl)) [Example 1008]" test_value=126
binder="YXQGTFTSDFSXXLDKKAQXAFIEYLLEGGPSSGAPPPGGSEE (non-natural residues; acylated Lys; C-terminal amide; synthetic construct; SITE 2: note = 2-Aminoisobutyric Acid; SITE 12: note = L-ornithine; SITE 13: note = alpha-methyl-leucine; SITE 17: note = Lysine is chemically modified through conjugation of the epsilon-amino group of the Lysine side chain with (gamma-Glu)2-CO-(CH2)16-CO2H; SITE 20: note = 2-Am) [Example 1047]" test_value=1960
binder="YXQGTFTSDXSQXLDKKAQXAFIEXLIEGGPSSGAPPPSGSEE (non-natural residues; Lys acylated C18 diacid; C-terminal amide; synthetic construct; SITE 2: note = 2-Aminoisobutyric Acid; SITE 10: note = 3-(4-Pyridyl)-L-alanine; SITE 13: note = alpha-methyl-leucine; SITE 17: note = Lysine is chemically modified through conjugation of the epsilon-amino group of the Lysine side chain with (2-[2-(2-Amino-ethoxy)-ethoxy]-acetyl)) [Example 954]" test_value=357
binder="YXQGTFTSDXSQXLDKKAQXAFIEYLIEAGPSSGAPPPSGSE (Aib, 4Pal, αMeL, Me4Pal, D-Ala; acylated lysine; amide; synthetic construct; SITE 2: note = 2-Aminoisobutyric Acid; SITE 10: note = 3-(4-Pyridyl)-L-alanine; SITE 13: note = alpha-methyl-leucine; SITE 17: note = Lysine is chemically modified through conjugation of the epsilon-amino group of the Lysine side chain with (gamma-Glu)2-CO-(CH2)16-CO2H; SITE 20:) [Example 1025]" test_value=352
binder="YXQGTXTSDXXIXLDXKAQXEFIEXLVEGGPSSGAPPPSGSE (synthetic construct; SITE 2: note = 2-Aminoisobutyric Acid; SITE 6: note = alpha-methyl-2-fluoro-L-phenylalanine; SITE 10: note = 3-(4-Pyridyl)-L-alanine; SITE 11: note = alpha-methyl-L-serine; SITE 13: note = alpha-methyl-leucine; SITE 16: note = L-ornithine; SITE 17: note = Lysine is chemically mo) [Example 751]" test_value=32.3
binder="YXQGTFTSDXSXXLDKKAQXAFIEYLIAGGPSSGEPPPSGTEEE (Aib, 4Pal, Orn, Me4Pal; lipidated Lys; C-terminal amide; synthetic construct; SITE 2: note = 2-Aminoisobutyric Acid; SITE 10: note = 3-(4-Pyridyl)-L-alanine; SITE 12: note = L-ornithine; SITE 13: note = alpha-methyl-leucine; SITE 17: note = Lysine is chemically modified through conjugation of the epsilon-amino group of the Lysine side chain with (gamma-Gl)) [Example 982]" test_value=310
binder="YXQGTFTSDFSKXLDKKAQXAFIEYLIEXGESSGAPPPSGS (acylated; synthetic construct; SITE 2: note = 2-Aminoisobutyric Acid; SITE 13: note = alpha-methyl-leucine; SITE 17: note = Lysine is chemically modified through conjugation of the epsilon-amino group of the Lysine side chain with (2-[2-(2-Amino-ethoxy)-ethoxy]-acetyl)-(gamma-Glu)-CO-(CH2) 16-CO2H; SITE 20: n) [Example 216]" test_value=90.6
binder="YXQGTFTSDYSXXLDKKAQXAFIEYLLEGGESSGAPPPSGS (synthetic construct; SITE 2: note = 2-Aminoisobutyric Acid; SITE 12: note = L-ornithine; SITE 13: note = alpha-methyl-leucine; SITE 17: note = Lysine is chemically modified through conjugation of the epsilon-amino group of the Lysine side chain with (2-[2-(2-Amino-ethoxy)-ethoxy]-acetyl)-(gamma-Glu)) [Example 359]" test_value=826
binder="YXQGTFTSDXSXXLDXKAQXXFIEXLIAGGPSSGAPPPSGSEE (Lys acylated with (γGlu)2-C18 diacid; non-natural residues; C-amide; synthetic construct; SITE 2: note = 2-Aminoisobutyric Acid; SITE 10: note = 3-(4-Pyridyl)-L-alanine; SITE 12: note = L-ornithine; SITE 13: note = alpha-methyl-leucine; SITE 16: note = L-ornithine; SITE 17: note = Lysine is chemically modified through conjugation of the epsilon-amino group of the Lys) [Example 994]" test_value=395
binder="YXQGTXTSDXSIXLDKKAQXAFIEYLEEGGPSSGEPPPS (synthetic construct; SITE 2: note = 2-Aminoisobutyric Acid; SITE 6: note = alpha-methyl-2-fluoro-L-phenylalanine; SITE 10: note = 3-(4-Pyridyl)-L-alanine; SITE 13: note = alpha-methyl-leucine; SITE 17: note = Lysine is chemically modified through conjugation of the epsilon-amino group of the Lysine) [Example 442]" test_value=23.9
binder="YXQGTXTSDYSILLDKKAQXAFIEYLEEGGPSSGAPPPSEG (not fully specified; synthetic construct; SITE 2: note = 2-Aminoisobutyric Acid; SITE 6: note = alpha-methyl-2-fluoro-L-phenylalanine; SITE 17: note = Lysine is chemically modified through conjugation of the epsilon-amino group of the Lysine side chain with (2-[2-(2-Amino-ethoxy)-ethoxy]-acetyl)-(gamma-Glu)-CO-(CH2) 16-) [Example 398]" test_value=42.2
binder="YXQGTFTSDXSXXLDKKAQXAFIEYLIAGGPSSGAPPPSGSEE (Lys acylated (γGlu)2-C18 diacid; non-natural residues; C-amide; synthetic construct; SITE 2: note = 2-Aminoisobutyric Acid; SITE 10: note = 3-(4-Pyridyl)-L-alanine; SITE 12: note = L-ornithine; SITE 13: note = alpha-methyl-leucine; SITE 17: note = Lysine is chemically modified through conjugation of the epsilon-amino group of the Lysine side chain with (gamma-Gl)) [Example 961]" test_value=216
binder="YXQGTFTSDXSXXLDXKAQXAFIEYLIAGGPSSGEPPPSGTEE (non-natural residues, acylated Lys, C-terminal amide; synthetic construct; SITE 2: note = 2-Aminoisobutyric Acid; SITE 10: note = 3-(4-Pyridyl)-L-alanine; SITE 12: note = L-ornithine; SITE 13: note = alpha-methyl-leucine; SITE 16: note = L-ornithine; SITE 17: note = Lysine is chemically modified through conjugation of the epsilon-amino group of the Lys) [Example 985]" test_value=217
binder="YXQGTFTSDXSXXLDXKAQXAFIEXLIEXGPSSGEPPPSGS (Aib, 4Pal, Orn, Me4Pal, lipidated Lys, C-terminal amide; synthetic construct; SITE 2: note = 2-Aminoisobutyric Acid; SITE 10: note = 3-(4-Pyridyl)-L-alanine; SITE 12: note = L-ornithine; SITE 13: note = alpha-methyl-leucine; SITE 16: note = L-ornithine; SITE 17: note = Lysine is chemically modified through conjugation of the epsilon-amino group of the Lys) [Example 991]" test_value=315
binder="YXQGTFTSDXSXXLDXKAQXAFIEYLIAGGPSSGEPPPSGTE (Aib, 4Pal, Orn, αMeL, Me4Pal; (γGlu)2-C18 diacid on Lys; amide; synthetic construct; SITE 2: note = 2-Aminoisobutyric Acid; SITE 10: note = 3-(4-Pyridyl)-L-alanine; SITE 12: note = L-ornithine; SITE 13: note = alpha-methyl-leucine; SITE 16: note = L-ornithine; SITE 17: note = Lysine is chemically modified through conjugation of the epsilon-amino group of the Lys) [Example 984]" test_value=160
binder="YXQGTFTSDXSXXLDXKAQXAFIEXLIEGGPSSGAPPPSGS (Aib, 4Pal, Orn, αMeL, Me4Pal, αMeY, (γGlu)2-C18 diacid, amide; synthetic construct; SITE 2: note = 2-Aminoisobutyric Acid; SITE 10: note = 3-(4-Pyridyl)-L-alanine; SITE 12: note = L-ornithine; SITE 13: note = alpha-methyl-leucine; SITE 16: note = L-ornithine; SITE 17: note = Lysine is chemically modified through conjugation of the epsilon-amino group of the Lys) [Example 1013]" test_value=137
binder="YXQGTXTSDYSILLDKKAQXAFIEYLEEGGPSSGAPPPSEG (synthetic construct; SITE 2: note = 2-Aminoisobutyric Acid; SITE 6: note = alpha-methyl-2-fluoro-L-phenylalanine; SITE 17: note = Lysine is chemically modified through conjugation of the epsilon-amino group of the Lysine side chain with (gamma-Glu)2-CO-(CH2)16-CO2H; SITE 20: note = 2-Aminoisobutyric) [Example 434]" test_value=35
binder="YXQGTXTSDYSIXLDXKAQXAFIEYLLEGGPSSGAPPPSEG (synthetic construct; SITE 2: note = 2-Aminoisobutyric Acid; SITE 6: note = alpha-methyl-2-fluoro-L-phenylalanine; SITE 13: note = alpha-methyl-leucine; SITE 16: note = L-ornithine; SITE 17: note = Lysine is chemically modified through conjugation of the epsilon-amino group of the Lysine side chain w) [Example 404]" test_value=32.2
binder="YXQGTFTSDFSXXLDKKAQXAFIEYLLEAGPSSGAPPPSGT (not fully specified; acylated; synthetic construct; SITE 2: note = 2-Aminoisobutyric Acid; SITE 12: note = L-ornithine; SITE 13: note = alpha-methyl-leucine; SITE 17: note = Lysine is chemically modified through conjugation of the epsilon-amino group of the Lysine side chain with (gamma-Glu)2-CO-(CH2)16-CO2H; SITE 20: note = 2-Am) [Example 204]" test_value=306
binder="YXQGTXTSDYXIXLDXKAQXXFIEXLEEGGPSSGEPPPEEG (synthetic construct; SITE 2: note = 2-Aminoisobutyric Acid; SITE 6: note = alpha-methyl-2-fluoro-L-phenylalanine; SITE 11: note = alpha-methyl-L-serine; SITE 13: note = alpha-methyl-leucine; SITE 16: note = L-ornithine; SITE 17: note = Lysine is chemically modified through conjugation of the epsilon) [Example 403]" test_value=70
binder="YXQGTFTSDFSQXLDXKAQXAFIEYLLEAGPSSGAPPPSGSEEE (non-natural residues, D-Ala, lipidated Lys, C-terminal amide; synthetic construct; SITE 2: note = 2-Aminoisobutyric Acid; SITE 13: note = alpha-methyl-leucine; SITE 16: note = L-ornithine; SITE 17: note = Lysine is chemically modified through conjugation of the epsilon-amino group of the Lysine side chain with (2-[2-(2-Amino-ethoxy)-ethoxy]-acetyl)-(gamma-Glu)) [Example 1038]" test_value=349
binder="YXQGTFTSDXSQXLDXKAQXAFIEXLIEGGPSSGAPPPSGSEE (not fully specified; non-natural residues; lipidated Lys; C-terminal amide; synthetic construct; SITE 2: note = 2-Aminoisobutyric Acid; SITE 10: note = 3-(4-Pyridyl)-L-alanine; SITE 13: note = alpha-methyl-leucine; SITE 16: note = L-ornithine; SITE 17: note = Lysine is chemically modified through conjugation of the epsilon-amino group of the Lysine side chain with (2-[2-(2-) [Example 1042]" test_value=642
binder="YXQGTXTSDXXIXLDXKAQXXFIEXLIEGGPSSGEPPPE (synthetic construct; SITE 2: note = 2-Aminoisobutyric Acid; SITE 6: note = alpha-methyl-2-fluoro-L-phenylalanine; SITE 10: note = 3-(4-Pyridyl)-L-alanine; SITE 11: note = alpha-methyl-L-serine; SITE 13: note = alpha-methyl-leucine; SITE 16: note = L-ornithine; SITE 17: note = Lysine is chemically mo) [Example 378]" test_value=18.8
binder="YXQGTXTSDXXIXLDXKAQXXFIEXLLEGGPSSXEPPPE (synthetic construct; SITE 2: note = 2-Aminoisobutyric Acid; SITE 6: note = alpha-methyl-2-fluoro-L-phenylalanine; SITE 10: note = 3-(4-Pyridyl)-L-alanine; SITE 11: note = alpha-methyl-L-serine; SITE 13: note = alpha-methyl-leucine; SITE 16: note = L-ornithine; SITE 17: note = Lysine is chemically mo) [Example 380]" test_value=30.6
